tested on: MIA PaCa-2; experiment: Growth inhibition of human MIAPaCa2 at 10 uM after 48 hrs by SRB assay relative to control; assay type: functional; conditions: MIA PaCa-2, 48 h, read-out: GI
Label satisfied when inhibition of growth at 10 µM >= 40%; otherwise not satisfied.

C=C(C)[C@@H]1CC[C@]2(C(=O)O)CC[C@]3(C)[C@H](CC[C@@H]4[C@@]5(C)C/C(=C/C=C/c6ccccc6)C(=O)C(C)(C)[C@@H]5CC[C@]43C)[C@@H]12	satisfied

Hi team, for C=C(C)[C@@H]1CC[C@]2(C(=O)O)CC[C@]3(C)[C@H](CC[C@@H]4[C@@]5(C)CCC(=O)C(C)(C)[C@@H]5CC[C@]43C)[C@@H]12 [BETUNOLIC ACID] , is the recorded inhibition of growth at 10 µM at or above 40%?
not satisfied

---

test: Selectivity index, ratio of IC50 for human FR2 cells to IC50 for human MIAPaCa2 cells; format: functional
endpointLabel: Ratio IC50
Write the number on its own, no unit after it.

So what's the measured Ratio IC50 for this one? C=C(C)[C@@H]1CC[C@]2(C(=O)O)CC[C@]3(C)[C@H](CC[C@@H]4[C@@]5(C)C/C(=C\c6cccnc6)C(=O)C(C)(C)[C@@H]5CC[C@]43C)[C@@H]12
20.4

So what's the measured Ratio IC50 for this one? C=C(C)[C@@H]1CC[C@]2(C(=O)O)CC[C@]3(C)[C@H](CC[C@@H]4[C@@]5(C)C/C(=C\c6ccc(OC)cc6)[C@H](O)C(C)(C)[C@@H]5CC[C@]43C)[C@@H]12
3.37

So what's the measured Ratio IC50 for this one? C=C(C)[C@@H]1CC[C@]2(C(=O)O)CC[C@]3(C)[C@H](CC[C@@H]4[C@@]5(C)C/C(=C\c6ccc(F)c(Br)c6)C(=O)C(C)(C)[C@@H]5CC[C@]43C)[C@@H]12
6.836

So what's the measured Ratio IC50 for this one? C=C(C)[C@@H]1CC[C@]2(C(=O)O)CC[C@]3(C)[C@H](CC[C@@H]4[C@@]5(C)C/C(=C\c6cccc7ccccc67)C(=O)C(C)(C)[C@@H]5CC[C@]43C)[C@@H]12
1.555

So what's the measured Ratio IC50 for this one? C=C(C)[C@@H]1CC[C@]2(C(=O)O)CC[C@]3(C)[C@H](CC[C@@H]4[C@@]5(C)C/C(=C\c6ccc(F)cc6)[C@H](O)C(C)(C)[C@@H]5CC[C@]43C)[C@@H]12
8.702

So what's the measured Ratio IC50 for this one? C=C(C)[C@@H]1CC[C@]2(C(=O)O)CC[C@]3(C)[C@H](CC[C@@H]4[C@@]5(C)C/C(=C\c6cccc([N+](=O)[O-])c6)[C@H](O)C(C)(C)[C@@H]5CC[C@]43C)[C@@H]12
1.8

So what's the measured Ratio IC50 for this one? C=C(C)[C@@H]1CC[C@]2(C(=O)O)CC[C@]3(C)[C@H](CC[C@@H]4[C@@]5(C)C/C(=C\c6ccccc6Br)[C@H](O)C(C)(C)[C@@H]5CC[C@]43C)[C@@H]12
2.257

So what's the measured Ratio IC50 for this one? C=C(C)[C@@H]1CC[C@]2(C(=O)O)CC[C@]3(C)[C@H](CC[C@@H]4[C@@]5(C)C/C(=C\c6cccc(Br)c6)[C@H](O)C(C)(C)[C@@H]5CC[C@]43C)[C@@H]12
1.041
